Sequence of the target: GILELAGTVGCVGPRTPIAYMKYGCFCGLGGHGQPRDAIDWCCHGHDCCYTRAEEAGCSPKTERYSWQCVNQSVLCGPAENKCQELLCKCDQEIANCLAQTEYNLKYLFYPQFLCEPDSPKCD
valueType: pKd
pKd here: minus log base 10 of the concentration, concentration in moles per litre.

Memo: NC(=O)c1sc2ccc(OC(F)(F)F)cc2c1-c1cccc(CCC(=O)O)c1 [Compound 5] , reported pKd: 8.10

* * *

Target: recombinant human sPLA2-IIA enzyme (Homo sapiens)
Construct: made in house; host or cells: E. coli
Sequence (P14555 21-144): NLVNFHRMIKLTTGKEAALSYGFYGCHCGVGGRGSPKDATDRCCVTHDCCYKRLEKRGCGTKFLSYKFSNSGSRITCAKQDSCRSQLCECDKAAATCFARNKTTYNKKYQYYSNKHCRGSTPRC
Experiment: sPLA2-IIA enzyme inhibition assay (thio-PC substrate, DTNB detection, absorbance 410 nm)
Format: biochemical
Details: class symbols; read-out: sPLA2 Type IIa Inhibition (IC50; nM)
valueType: IC50

molecule: C[C@@]1(c2cccc(-n3c(C(N)=O)cc4ccc(OC(F)(F)F)cc43)c2)C[C@H]1C(=O)O (relative stereo) [Compound 38b]
IC50: > 1000 nM

Considering CC(C)(Sc1cccc(-n2c(C(N)=O)cc3ccc(OC(F)(F)F)cc32)c1)C(=O)O , its IC50 with recombinant human sPLA2-IIA enzyme (Homo sapiens) was recorded as 200 to 500 nM

Considering NC(=O)c1cc2ccc(OC(F)(F)F)cc2n1-c1cccc(C2CC2C(=O)O)c1 (racemic) [Compound 15] , its IC50 with recombinant human sPLA2-IIA enzyme (Homo sapiens) was recorded as > 1000 nM

Considering NC(=O)c1cc2ccc(OC(F)(F)F)cc2n1-c1cccc(C2(NCC(=O)O)CCC2)n1 , its IC50 with recombinant human sPLA2-IIA enzyme (Homo sapiens) was recorded as > 1000 nM

Considering NC(=O)c1cc2ccc(OC(F)(F)F)cc2n1-c1ccc2c(c1)C(CC(=O)O)CO2 (single isomer, unassigned; (+)) [Compound 1a] , its IC50 with recombinant human sPLA2-IIA enzyme (Homo sapiens) was recorded as > 1000 nM

Considering NC(=O)c1cc2ccc(OC(F)(F)F)cc2n1-c1cccc(C(F)(F)CO)c1 , its IC50 with recombinant human sPLA2-IIA enzyme (Homo sapiens) was recorded as > 1000 nM

Considering NC(=O)c1cc2ccc(OC(F)(F)F)cc2n1-c1cccc([C@H](N)CC(=O)O)c1 , its IC50 with recombinant human sPLA2-IIA enzyme (Homo sapiens) was recorded as > 1000 nM

Considering NC(=O)c1cc2ccccc2n1-c1cccc(CCC(=O)O)c1 , its IC50 with recombinant human sPLA2-IIA enzyme (Homo sapiens) was recorded as > 1000 nM

Considering NC(=O)c1nc2ccc(OC(F)(F)F)cc2n1-c1cccc(C2CC2C(=O)O)n1 (stereo not shown) , its IC50 with recombinant human sPLA2-IIA enzyme (Homo sapiens) was recorded as > 1000 nM

Considering NC(=O)c1cc2ccc(OC(F)(F)F)cc2n1-c1cccc(N2CC[C@H]2C(=O)O)n1 , its IC50 with recombinant human sPLA2-IIA enzyme (Homo sapiens) was recorded as > 1000 nM

Considering NC(=O)c1sc2ccc(OC(F)(F)F)cc2c1-c1cccc(C2CC2C(=O)O)n1 (racemic) [Compound 54] , its IC50 with recombinant human sPLA2-IIA enzyme (Homo sapiens) was recorded as > 1000 nM

Considering NC(=O)c1cc2ccc(OC(F)(F)F)cc2n1-c1cccc(S(=O)(=O)CC(=O)O)n1 , its IC50 with recombinant human sPLA2-IIA enzyme (Homo sapiens) was recorded as > 1000 nM

Considering NC(=O)c1sc2ccc(OC(F)(F)F)cc2c1-c1cccc(C2CC2C(=O)O)n1 (stereo not shown) [Compound 56] , its IC50 with recombinant human sPLA2-IIA enzyme (Homo sapiens) was recorded as > 1000 nM

Considering NC(=O)c1[se]c2ccc(OC(F)(F)F)cc2c1-c1cccc(CCC(=O)O)c1 , its IC50 with recombinant human sPLA2-IIA enzyme (Homo sapiens) was recorded as 500 to 1000 nM

Considering CC(=O)NCc1cccc(-n2c(C(N)=O)cc3ccc(OC(F)(F)F)cc32)n1 , its IC50 with recombinant human sPLA2-IIA enzyme (Homo sapiens) was recorded as > 1000 nM

Considering NC(=O)c1cc2ccc(OC(F)(F)F)cc2n1-c1cccc(N2CC(C(=O)O)C2)n1 , its IC50 with recombinant human sPLA2-IIA enzyme (Homo sapiens) was recorded as > 1000 nM
